ASSAYED SYSTEM: Sialic acid-binding Ig-like lectin 7 (Homo sapiens)
Sequence (Q9Y286 whole entry, the tested form may be a part): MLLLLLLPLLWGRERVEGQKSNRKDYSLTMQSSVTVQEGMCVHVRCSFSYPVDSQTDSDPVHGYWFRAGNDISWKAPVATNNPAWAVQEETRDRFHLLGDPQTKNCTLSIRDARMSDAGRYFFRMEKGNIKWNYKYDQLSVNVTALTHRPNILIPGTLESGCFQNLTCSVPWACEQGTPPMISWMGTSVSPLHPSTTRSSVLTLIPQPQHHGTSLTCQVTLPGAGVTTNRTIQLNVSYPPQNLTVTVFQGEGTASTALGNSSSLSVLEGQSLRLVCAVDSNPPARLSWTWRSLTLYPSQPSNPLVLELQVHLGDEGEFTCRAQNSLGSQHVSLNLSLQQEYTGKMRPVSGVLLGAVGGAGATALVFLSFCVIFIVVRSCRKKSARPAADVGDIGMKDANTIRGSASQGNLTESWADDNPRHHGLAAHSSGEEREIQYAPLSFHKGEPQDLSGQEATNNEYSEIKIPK
ASSAY DETAILS: Binding affinity to human IgG1-fused Siglec-7-Fc assessed as inhibition of Siglec-7-Fc binding to RBC preincubated for 10 mins followed by RBC addition measured after 20 mins by FACS analysis relative to sodium (4S,5R,6R)-5-acetamido-4-hydroxy-2-methoxy-6-((1R,2R)-1,2,3 trihydroxypropyl)tetrahydro-2H-pyran-2-carboxylate
ASSAY READOUT: fold change (FC)

CCCCS(=O)(=O)NC[C@@H](O)[C@@H](O)[C@@H]1O[C@@](OCCCn2cc(-c3ccc(-c4ccccc4)cc3)nn2)(C(=O)O)C[C@H](O)[C@H]1NC(C)=O: 0.16

1: CC(=O)N[C@H]1[C@H]([C@H](O)[C@H](O)CNS(=O)(=O)O)O[C@@](OCCCn2cc(-c3ccc(-c4ccccc4)cc3)nn2)(C(=O)O)C[C@@H]1O
2: CC(=O)N[C@H]1[C@H]([C@H](O)[C@H](O)CNS(C)(=O)=O)O[C@@](OCCCn2cc(-c3ccc(-c4ccccc4)cc3)nn2)(C(=O)[O-])C[C@@H]1O.[Na+]
3: COC1(C(=O)O)C[C@H](O)[C@@H](NC(C)=O)[C@H]([C@H](O)[C@H](O)CNC(=O)Cc2ccccc2)O1 (stereo partly drawn)
(Q) Could you please order the items by fold change (FC), going from the lowest number to the highest? Note for the reader: the ranking is given by listing the labels in the order requested.
(A) 3, 1, 2
(3: 10, 1: 33, 2: 3120)
